Conditions: 298.15 K; 101.33 kPa; Liquid
value kind: speed of sound (m/s)
Answers are plain numbers, in m/s.

// for each compound below, give its speed of sound
1. CCCCO
2. CCCCCCCCO
3. CCCO
4. CCCCCCO

1. 1240.8
2. 1347.9
3. 1208.1
4. 1303.6

Could you share which speed of sound value was measured for `CC(C)O` ? 1141.3

* * *

Could you please report measured mass density for the items listed next?
Conditions: 298.15 K; 101.33 kPa; Liquid
Numbers only, in kg/m3.

CCCO 800.62
CCCCCCO 815.15

// for each molecule below, give its mass density
1. CCCCO
2. CC(C)O
3. CCCCCCCCO

1. 806.14
2. 781.91
3. 821.72
